- Assay System: PfDHODH (Plasmodium falciparum, UniProt Q08210)
- Construct: encoding amino acid residues 158 to 569 fused to a His6-SUMO tag in its N-terminus; His6-SUMO (N, cleaved yes); made in house; host or cells: E. coli BL21 Star (DE3), pETSUMO/PfDHODH
- Sequence (Q08210 158-569): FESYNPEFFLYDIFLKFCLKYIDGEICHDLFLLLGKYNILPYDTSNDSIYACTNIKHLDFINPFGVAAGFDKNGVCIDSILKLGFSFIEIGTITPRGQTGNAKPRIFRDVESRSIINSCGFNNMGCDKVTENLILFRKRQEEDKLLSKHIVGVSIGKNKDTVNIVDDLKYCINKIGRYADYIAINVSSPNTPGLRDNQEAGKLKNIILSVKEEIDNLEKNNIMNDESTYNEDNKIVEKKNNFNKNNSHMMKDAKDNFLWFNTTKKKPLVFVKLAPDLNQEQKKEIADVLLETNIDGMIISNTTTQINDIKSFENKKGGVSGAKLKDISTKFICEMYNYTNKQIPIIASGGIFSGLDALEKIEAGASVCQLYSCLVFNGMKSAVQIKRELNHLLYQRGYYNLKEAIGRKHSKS
- Assay Summary: PfDHODH inhibition assay (DCIP end-point, 384-well)
- Assay type: biochemical
- Condition Label: recombinant tag-free PfDHODH, 20 min, serial dilutions 0.0007-22.7 µM; read-out: IC50 DHODH Pf
For each record, check the reported IC50: if it is below 1000 nM write Met, else write Not met.

Task: Quick check: does c1cc2c(cc1-c1ccc3c(c1)SN1CCCN=C31)OCO2 have IC50 under 1000 nM?
Result: Not met

Task: Proceed to N=C1Sc2cc(-c3ccc4c(C(=O)OC(F)(F)F)c[nH]c4c3)ccc2C2=NCCCN12
Result: Met

Task: Proceed to N=C1Sc2cc(-c3ccccc3-c3ccccc3)ccc2C2=NCCCN12
Result: Not met

Task: Proceed to N=C1Sc2cc(-c3ccc(C(F)(F)F)cc3)ccc2C2=NCCCN12
Result: Not met

====

- Tested on: P. falciparum 3D7 strain expressing the cytosolic yeast DHODH (3D7-yDHODH)
- Assay Summary: Confirmation assay against transgenic parasite 3D7-yDHODH
- Format: cell-based, Plasmodium falciparum
- Condition Label: 72 h; relative parasite growth at 10 µM compound; read-out: Growth at 10 µM (%) Pf3D7-yDHODH
Recorded Endpoint: activity at 10 µM (%)
Respond numerically; units are % and should not be typed.

Task: Which measured activity at 10 µM value corresponds to c1ccc(-c2ccc3c(c2)SN2CCCN=C32)cc1 ?
Result: 63.6

Task: Proceed to N=C1Sc2cc(/C=C/c3ccccc3)ccc2C2=NCCCN12
Result: 0.12

Task: Proceed to N=C1Sc2cc(-c3ccccc3)ccc2C2=NCCCN12
Result: -0.22

Task: Proceed to CSc1ccc(-c2ccc3c(c2)SC(=N)N2CCCN=C32)cc1
Result: -0.5

Task: Proceed to O=[N+]([O-])c1ccc(-c2ccc3c(c2)SN2CCCN=C32)cc1
Result: 1.48

Task: Proceed to N=C1Sc2cc(-c3ccc(C(=O)c4ccccc4)cc3)ccc2C2=NCCCN12
Result: 68.6

Task: Proceed to COC(=O)c1cccc(-c2ccc3c(c2)SN2CCCN=C32)c1
Result: -0.09

Task: Proceed to N=C1Sc2cc(-c3ccc4c(c3)OCO4)ccc2C2=NCCCN12
Result: -0.23

Task: Proceed to CCc1cccc(-c2ccc3c(c2)SC(=N)N2CCCN=C32)c1
Result: 0.01
